Ref: patent US20120077731A1

# assayed system: T1, Human soluble IL-6R (human, UniProt P08887 20-358)
# T1 construct: Soluble recombinant form; biotinylated in some assays; also called hIL-6R; human IL-6R
# T1 sequence (looked up): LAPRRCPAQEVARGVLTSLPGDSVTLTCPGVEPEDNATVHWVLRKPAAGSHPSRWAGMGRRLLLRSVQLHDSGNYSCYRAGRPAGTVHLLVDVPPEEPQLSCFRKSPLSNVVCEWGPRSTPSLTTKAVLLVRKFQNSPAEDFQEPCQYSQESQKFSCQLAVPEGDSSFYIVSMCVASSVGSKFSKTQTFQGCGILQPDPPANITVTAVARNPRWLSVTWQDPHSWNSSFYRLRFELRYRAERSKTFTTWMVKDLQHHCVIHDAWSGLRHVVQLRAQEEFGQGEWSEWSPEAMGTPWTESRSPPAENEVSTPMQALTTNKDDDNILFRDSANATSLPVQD
# measurement notes: SPR Biacore 3000, IL-6R amine-coupled to CM5
pKd: −log10 of the molar value.
readout name: pKd

[
  {
    "binder": "IL6R04 (VHH, also called PMP32C9; not shown: C-terminal c-myc and (His)6 tags) VHH: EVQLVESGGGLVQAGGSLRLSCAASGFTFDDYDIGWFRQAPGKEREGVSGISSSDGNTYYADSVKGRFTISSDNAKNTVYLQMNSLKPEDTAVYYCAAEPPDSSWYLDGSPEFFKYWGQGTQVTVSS",
    "result value": 9.52
  },
  {
    "binder": "IL6R10 (VHH, also called PMP35C10; not shown: C-terminal c-myc and (His)6 tags) VHH: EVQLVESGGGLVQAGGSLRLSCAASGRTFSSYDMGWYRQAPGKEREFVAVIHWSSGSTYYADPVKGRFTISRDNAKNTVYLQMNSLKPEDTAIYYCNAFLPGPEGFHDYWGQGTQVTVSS",
    "result value": 8.89
  },
  {
    "binder": "IL6R05 (VHH, also called PMP32E10; not shown: C-terminal c-myc and (His)6 tags) VHH: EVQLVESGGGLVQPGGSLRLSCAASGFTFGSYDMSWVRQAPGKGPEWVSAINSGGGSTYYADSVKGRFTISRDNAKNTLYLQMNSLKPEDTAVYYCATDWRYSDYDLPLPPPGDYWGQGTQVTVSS",
    "result value": 8.01
  },
  {
    "binder": "IL6R02 (VHH, also called PMP30C11; not shown: C-terminal c-myc and (His)6 tags) VHH: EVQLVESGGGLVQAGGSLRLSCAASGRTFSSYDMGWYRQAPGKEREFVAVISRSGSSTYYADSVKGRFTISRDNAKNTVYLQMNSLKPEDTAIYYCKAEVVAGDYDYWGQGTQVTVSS",
    "result value": 8.23
  }
]
